biological target: recombinant DYRK1A kinase (Homo sapiens (Human), UniProt Q13627); assay: DYRK1A kinase assay (Ser/Thr 18 peptide Z-lyte FRET); conditions: 30 μM ATP, 1 h room temperature;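 further: Read-out is the coumarin to fluorescein emission ratio, referenced to unphosphorylated (0%) and phosphorylated (100%) Ser/Thr 18 peptide controls, values from dose-response curves by non-linear regression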
recorded_endpoint: EC50 (nM)
One number for each entry, in nM.

CC(C)CN1CCC(F)(C(=O)Nc2cc3cc(-c4nncn4C)ccc3cn2)CC1 [Compound 280] = 10.8
CC(C)OCC(=O)Nc1cc2cc(-c3cncn3C)ccc2cn1 [Compound 1008] = 7.5
CN1CCC(C(=O)Nc2cc3cc(-c4cnsc4)ccc3cn2)CC1 [Compound 970] = 2.3
Cn1nncc1-c1ccc2cnc(NC(=O)C3CCN(CCC(F)(F)F)CC3)cc2c1 [Compound 248] = 37.4
Cn1cc(-c2ccc3cnc(NC(=O)[C@H]4C[C@H](N5CCOCC5)C4)cc3c2)cn1 [Compound 1035] = 2.6

Count: 3. Required value per item: EC50.
1. Cc1ncc(-c2ccc3cnc(NC(=O)C4CCCCC4)cc3c2)n1C [Compound 120]
2. [2H]C([2H])([2H])N1CCN(CC(=O)Nc2cc3cc(-c4cnn(C)c4)ccc3cn2)CC1 [Compound 965]
3. CNc1ncc(-c2ccc3cnc(NC(=O)C4CCNCC4)cc3c2)s1 [Compound 1040]

Solution:
1. 4.8
2. 10.6
3. 4.8
